- TGT: human NCX1 (Homo sapiens, UniProt P32418)
- Construct: expressed in transfected cells
- TEST NAME: NCX1 inhibition, forward mode (Ca2+ efflux out of cells), FLIPR calcium assay
- Type: cell-based
- MEASUREMENT PARAMETERS: CHO cells stably expressing human NCX1, read-out: NCX1fw IC50
Counter-ions that a name gives are not always drawn.
For each of the molecules below, state its pIC50.
Note on units: pIC50 is unitless, being -log10 of a concentration expressed in mol/L.

Ask | Please look at this molecule and report its pIC50: COC(=O)[C@@H](C)NC(=O)c1cnc(Oc2ccc3c(c2)CCC(c2cccnc2)O3)s1 (some centres unmarked)
Reply | 5.00

Ask | Could you please provide reported pIC50 for Cc1ccccc1[C@@H]1CCc2cc(Oc3ncc(C(=O)NCCOP(=O)(O)O)s3)ccc2O1 [Example 345, disodium salt] ? Thanks!
Reply | 5.52

Ask | Annotate the molecule Cc1ccccc1C1CCc2cc(Oc3ncc(CNC(=O)c4ccno4)s3)ccc2O1 (centres unmarked) with its measured pIC50.
Reply | 5.60

Ask | Note pIC50 for the molecule shown: Cc1nc(Oc2ccc3c(c2)CCC(c2ccccc2)O3)sc1C(=O)NCc1ccncc1 (centres unmarked) [Example 59, hydrochloride]
Reply | 6.70

Ask | For the molecule Cc1ccccc1C1CCc2cc(Oc3nc(C)c(C(=O)NCCO)s3)ccc2O1 (centres unmarked) , report pIC50.
Reply | 6.05

Ask | Using known records, supply pIC50 for O=C(NCc1ccnc(Cl)c1)c1cnc(Oc2ccc3c(c2)CCC(c2ccccc2)O3)s1 (centres unmarked)
Reply | 5.92

Ask | Respond only with pIC50 recorded for O=C(NCc1ccncc1)c1cnc(Oc2ccc3c(c2)CCC(c2cccc(F)c2)O3)s1 (centres unmarked) [Example 18, hydrochloride]
Reply | 6.22

Ask | Look up and report measured pIC50 for this entry: CC(NC(=O)c1cnc(Oc2ccc3c(c2)CCC(c2cccc(F)c2)O3)s1)c1ccncc1 (centres unmarked) [Example 13, hydrochloride]
Reply | 6.05

Ask | Tell me pIC50 reported for Cc1ccccc1C1CCc2cc(Oc3ncc(C(=O)NCCN4CCNC4=O)s3)ccc2O1 (centres unmarked)
Reply | 5.72

Ask | Give recorded pIC50. c1ccc(C2CCc3cc(Oc4ncc(CNC5CC5)s4)ccc3O2)cc1 (centres unmarked)
Reply | 5.51

Ask | Please indicate pIC50 recorded for O=C(NC1C2CNCC21)c1cnc(Oc2ccc3c(c2)CC[C@@H](c2ccccc2)O3)s1 (some centres unmarked)
Reply | 6.22

Ask | Recall and state the measured pIC50 for c1ccc(C2CCc3cc(Oc4ncc(CNCc5ccncc5)s4)ccc3O2)cc1 (centres unmarked) .
Reply | 5.59

Ask | Answer with the recorded pIC50 for the molecule listed here: Cc1ccccc1C1CCc2cc(Oc3ncc(C(=O)NCCO)s3)ccc2O1 (centres unmarked)
Reply | 6.22

Ask | Look up pIC50 of O=C(NCc1nnc2n1CCC2)c1cnc(Oc2ccc3c(c2)CCC(c2ccccc2)O3)s1 (centres unmarked) and report it.
Reply | 5.72

---

- TGT: human NCX1 (Homo sapiens)
- Construct: expressed in transfected cells
- TEST NAME: NCX1 inhibition, reverse mode (Ca2+ influx into cells), FLIPR Fluo-4 assay
- Assay type: cell-based
- MEASUREMENT PARAMETERS: inhibition of NCX1 in reverse mode (Ca2+ influx into cells); read-out: NCX1rv IC50
Where a name gives a salt, the structure may show the parent alone.
Give IC50 for every item shown.
Field format: number, assumed nM, no unit text.

Ask | Given CCCNC(=O)c1cnc(Oc2ccc3c(c2)CCC(c2ccccc2)O3)s1 (stereo not shown) , respond with its IC50.
Reply | 400

Ask | Give reported IC50 value for NC1C[C@@H]1NC(=O)c1cnc(Oc2ccc3c(c2)CC[C@@H](c2ccccc2)O3)s1 (stereo partly shown) [compound 284, hydrochloride]
Reply | 200

Ask | Please indicate IC50 recorded for CC(C)(C)[C@H](NC(=O)c1cnc(Oc2ccc3c(c2)CCC(c2cccnc2)O3)s1)C(=O)O (stereo partly shown)
Reply | 10100

Ask | Complete the entry with IC50 for O=C(c1cnc(Oc2ccc3c(c2)CCC(c2ccccc2)O3)s1)N1CC[C@@H](O)C1 (stereo partly shown)
Reply | 600

---

- TGT: human NCX1 (Homo sapiens, UniProt P32418)
- Construct: expressed in transfected cells
- TEST NAME: NCX1 inhibition, reverse mode (Ca2+ influx into cells), FLIPR Fluo-4 assay
- Format: cell-based
- MEASUREMENT PARAMETERS: inhibition of NCX1 in reverse mode (Ca2+ influx into cells); read-out: NCX1rv IC50
Counter-ions that a name gives are not always drawn.
Output: class label from IC50. Mapping: low range = under 200 nM, mid range = from 200 nM up to 500 nM, high range = 500 nM and over

Ask | Where would O=C(NC1C2CNCC21)c1cnc(Oc2ccc3c(c2)CC[C@@H](c2ccccc2)O3)s1 (some centres unmarked) land among the classes by reported IC50?
Reply | mid range

Ask | Could you place CC1Cc2cc(Oc3ncc(C(=O)NCc4ccno4)s3)ccc2OC1c1ccccc1 (centres unmarked) in its proper category? Many thanks.
Reply | high range

Ask | In plain terms, what class is O=C(CN1CCCC1)NCc1cnc(Oc2ccc3c(c2)CCC(c2ccccc2)O3)s1 (centres unmarked) [compound 346, hydrochloride] ?
Reply | low range

Ask | Sort into band: Cc1noc(C)c1CCNC(=O)c1cnc(Oc2ccc3c(c2)CCC(c2cccc(OC(C)C)c2)O3)s1 (centres unmarked)
Reply | high range

Ask | Note: place this compound into its band. Item: CN1CCN(Cc2cnc(Oc3ccc4c(c3)CCC(c3ccccc3)O4)s2)CC1 (centres unmarked)
Reply | high range

Ask | Bin this entry: Cc1nc(Oc2ccc3c(c2)CCC(c2ccccc2)O3)sc1C(=O)NCc1ccno1 (centres unmarked)
Reply | mid range

Ask | Textbook exercise: identify the category of the compound given here, CCn1nccc1CNC(=O)c1cnc(Oc2ccc3c(c2)CCC(c2cccc(F)c2OC)O3)s1 (centres unmarked) , according to its measured value.
Reply | high range

Ask | Which class is correct for the following compound? Cc1nc(Oc2ccc3c(c2)CC[C@@H](c2ccccc2)O3)sc1C(=O)NCc1ccnc(Cl)c1 [compound 178, hydrochloride]
Reply | mid range

Ask | For the record CC(C)NC(=O)c1cnc(Oc2ccc3c(c2)CCC(c2ccccc2)O3)s1 (centres unmarked) , report the class its IC50 corresponds to.
Reply | mid range

Ask | The entry to classify is O=C(NCc1cn2ccccc2n1)c1cnc(Oc2ccc3c(c2)CCC(c2ccccc2)O3)s1 (centres unmarked) ; which class holds it?
Reply | high range

Ask | Looking at Cc1c(CNC(=O)c2cnc(Oc3ccc4c(c3)CCC(c3ccccc3)O4)s2)cnn1C (centres unmarked) , which class would you pick?
Reply | mid range

Ask | Which IC50 band matches c1ccc(C2CCc3cc(Oc4ncc(CNCc5nnc6ccccn56)s4)ccc3O2)cc1 (centres unmarked) ?
Reply | mid range

Ask | Form field 'band' for c1ccc(C2CCc3cc(Oc4ncc(CNCc5ccno5)s4)ccc3O2)cc1 (centres unmarked)
Reply | low range

Ask | Please classify: O=C(NC(CCO)C1CC1)c1cnc(Oc2ccc3c(c2)CCC(c2cccnc2)O3)s1 (centres unmarked)
Reply | high range

Ask | Which band does c1ccc(C2CCc3cc(Oc4ncc(CNCc5cn6ccsc6n5)s4)ccc3O2)cc1 (centres unmarked) fall in?
Reply | mid range

Ask | Returns: class label. Input: c1ccc([C@@H]2CCc3cc(Oc4ncc(CNCc5ccno5)s4)ccc3O2)cc1
Reply | low range

Ask | Which bin should I file Cc1nc(Oc2ccc3c(c2)CC[C@@H](c2ccccc2)O3)sc1C(=O)NCc1ccncc1 [compound 98, hydrochloride] under?
Reply | mid range

Ask | Field: class (IC50) — entry: Cc1nn(C)c(C)c1S(=O)(=O)NCc1cnc(Oc2ccc3c(c2)CCC(c2ccccc2)O3)s1 (centres unmarked)
Reply | high range

Ask | # classify by IC50 band: Cc1cc(C(=O)NCc2cnc(Oc3ccc4c(c3)CCC(c3ccccc3)O4)s2)ccn1 (centres unmarked)
Reply | mid range

Ask | Lab note: sort c1ccc(C2CCc3cc(Oc4ncc(CN5CC6CCC(CC6)C5)s4)ccc3O2)cc1 (centres unmarked) into the matching IC50 band.
Reply | high range

Ask | Band for O=C(NCc1cnc(Oc2ccc3c(c2)CCC(c2ccccc2)O3)s1)c1ccncc1F (centres unmarked) ?
Reply | high range

Ask | Which bin should I file COC(=O)CNCc1cnc(Oc2ccc3c(c2)CC[C@@H](c2ccccc2)O3)s1 under?
Reply | low range

Ask | Quick check: band for CC[C@H](C)[C@H](NC(=O)c1cnc(Oc2ccc3c(c2)CCC(c2cccnc2)O3)s1)C(=O)OC (some centres unmarked)
Reply | high range
